experiment: HPLC determination of partition coefficients in acetonitrile phase systems; conditions: Acetonitrile/water/chloroform 5:5:1, 22° C.; organic phase divided by aqueous phase integration values
In plain terms, low Partition Coefficient Ternary, meaning strictly below 5, gives satisfied, and everything else gives not satisfied.

// known answers, use as guide
1) CCCCC(=O)OCC [Ethyl Valerate] :: not satisfied
2) N[C@@H](Cc1ccccc1)C(=O)O [1-phenylalanine] :: satisfied
3) CSCC[C@H](N)C(=O)O [1-methionine] :: satisfied
4) S [Hydrogen sulfide] :: not satisfied

Shifting focus to the molecule that follows.
### Prompt Given CCCCCCCC(=O)O [Caprylic acid] , is recorded Partition Coefficient Ternary strictly lower than 5?
### Response not satisfied

----------
Assay: HPLC determination of partition coefficients in acetonitrile phase systems
Conditions: 60 min
Procedure: In these tests, known organic flavor volatile compounds were added to 2 ml aliquots of 50:50 acetonitrile:water, 22° C., in 4 ml HPLC vials, mixed thoroughly and capped with polytetrafluoroethylene septum caps. […] The samples were injected (20 uL) into a continuous HPLC apparatus. […] The partition coefficient, P, was calculated by dividing the organic phase by the aqueous phase integration values. […]
Each entry below carries its recorded Partition Coefficient Binary.
Just the number, please, no unit after it.

### Prompt Please give the documented Partition Coefficient Binary of CCCC(=O)OCC [Ethyl Butyrate]
### Response 14.3

### Prompt Please give the documented Partition Coefficient Binary of OCCc1ccccc1 [2-phenyl ethanol]
### Response 3.3

### Prompt Please give the documented Partition Coefficient Binary of CSC [Dimethyl sulfide]
### Response 5.2

### Prompt Please give the documented Partition Coefficient Binary of O=C1O[C@H]([C@@H](O)CO)[C@@H](O)[C@@H]1O [1-galactono-1,4-lactone]
### Response 0.2

----------
experiment: HPLC determination of partition coefficients in acetonitrile phase systems; conditions: Acetonitrile/water 1:1, 1 hr. at -20° C.; organic phase divided by aqueous phase integration values
Each entry below carries its recorded Partition Coefficient Binary.
Just the number, please, no unit after it.

Worked set:
1) S [Hydrogen sulfide] :: 4.6
2) CSCC[C@H](N)C(=O)O [1-methionine] :: 0.03
3) N[C@@H](Cc1ccccc1)C(=O)O [1-phenylalanine] :: 0.1
4) CCCCCCCC(=O)O [Caprylic acid] :: 20.8

### Prompt Please give the documented Partition Coefficient Binary of CCCCC(=O)OCC [Ethyl Valerate]
### Response 25.9

----------
Each entry below carries its recorded Partition Coefficient Ternary.
experiment: HPLC determination of partition coefficients in acetonitrile phase systems
Just the number, please, no unit after it.

1) O=C1O[C@H]([C@@H](O)CO)[C@@H](O)[C@@H]1O :: 0.2
2) OCCc1ccccc1 :: 2.3
3) CSC [Dimethyl sulfide] :: 6.6

Let us examine a further case.
### Prompt Please give the documented Partition Coefficient Ternary of CCCC(=O)OCC [Ethyl Butyrate]
### Response 17.6
